These entries and their values trace back to paper doi:10.1101/2025.11.21.689824v1.

- system.under.test: V0 fusion (MDH-G4SG4S-fumarase)
- experimental.protocol: inhibition of fumarate to NADH cascade, Lineweaver-Burk
- condition.summary: 500 µM NAD+, fumarate 0.25-8 mM, 100 mM potassium phosphate, 0.5 nM enzyme; competitive at the MDH part; cascade read-out; read-out: apparent Ki
value.kind: Ki
Express the reported value numerically, then name its unit.

[in] For the compound O=C(O)CC(O)(CC(=O)O)C(=O)O [citrate] , what Ki is on record?
[out] 1650 µM
